target: Truncated human FAK(PTK2) (Homo sapiens, UniProt Q05397)
Sequence (Q05397 376-1052): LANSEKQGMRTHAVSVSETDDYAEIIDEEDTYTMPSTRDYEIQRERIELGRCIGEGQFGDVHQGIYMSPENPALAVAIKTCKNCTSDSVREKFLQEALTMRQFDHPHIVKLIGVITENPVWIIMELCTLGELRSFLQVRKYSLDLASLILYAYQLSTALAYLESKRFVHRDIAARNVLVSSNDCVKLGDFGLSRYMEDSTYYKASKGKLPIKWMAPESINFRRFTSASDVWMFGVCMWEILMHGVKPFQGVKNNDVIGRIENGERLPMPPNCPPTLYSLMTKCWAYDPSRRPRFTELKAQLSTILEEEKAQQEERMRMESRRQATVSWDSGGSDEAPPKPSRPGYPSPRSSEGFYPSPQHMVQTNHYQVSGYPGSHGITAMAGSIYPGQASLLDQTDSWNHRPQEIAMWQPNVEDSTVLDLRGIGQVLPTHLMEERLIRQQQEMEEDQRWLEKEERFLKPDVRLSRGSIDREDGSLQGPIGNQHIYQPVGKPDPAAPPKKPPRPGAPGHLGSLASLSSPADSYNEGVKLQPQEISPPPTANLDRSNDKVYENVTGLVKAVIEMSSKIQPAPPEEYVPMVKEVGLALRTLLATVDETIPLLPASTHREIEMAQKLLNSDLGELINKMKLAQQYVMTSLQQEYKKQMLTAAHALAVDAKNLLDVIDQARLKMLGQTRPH
test: In vitro FAK inhibition, HTRF kinEASE-TK kinase assay
Entries and their IC50 values follow.
recorded metric: IC50 (nM)

>>> print(df.to_string())
                                   molecule                                    target  experimental_result
0  COc1ccc(Nc2nc(Nc3ccc(OCCOCCF)cc3)ncc2Br)cc1 [[^19F]2]  Truncated human FAK(PTK2) (Homo sapiens, UniProt Q05397)                 57.1
1  COc1ccc(Nc2nc(Nc3ccc(OCCOCCOCCF)cc3)ncc2Br)cc1 [[^19F]3]  Truncated human FAK(PTK2) (Homo sapiens, UniProt Q05397)                 1110

----------
target: PYK2 (Homo sapiens, UniProt Q14289)
Sequence (Q14289 whole entry, species assumed): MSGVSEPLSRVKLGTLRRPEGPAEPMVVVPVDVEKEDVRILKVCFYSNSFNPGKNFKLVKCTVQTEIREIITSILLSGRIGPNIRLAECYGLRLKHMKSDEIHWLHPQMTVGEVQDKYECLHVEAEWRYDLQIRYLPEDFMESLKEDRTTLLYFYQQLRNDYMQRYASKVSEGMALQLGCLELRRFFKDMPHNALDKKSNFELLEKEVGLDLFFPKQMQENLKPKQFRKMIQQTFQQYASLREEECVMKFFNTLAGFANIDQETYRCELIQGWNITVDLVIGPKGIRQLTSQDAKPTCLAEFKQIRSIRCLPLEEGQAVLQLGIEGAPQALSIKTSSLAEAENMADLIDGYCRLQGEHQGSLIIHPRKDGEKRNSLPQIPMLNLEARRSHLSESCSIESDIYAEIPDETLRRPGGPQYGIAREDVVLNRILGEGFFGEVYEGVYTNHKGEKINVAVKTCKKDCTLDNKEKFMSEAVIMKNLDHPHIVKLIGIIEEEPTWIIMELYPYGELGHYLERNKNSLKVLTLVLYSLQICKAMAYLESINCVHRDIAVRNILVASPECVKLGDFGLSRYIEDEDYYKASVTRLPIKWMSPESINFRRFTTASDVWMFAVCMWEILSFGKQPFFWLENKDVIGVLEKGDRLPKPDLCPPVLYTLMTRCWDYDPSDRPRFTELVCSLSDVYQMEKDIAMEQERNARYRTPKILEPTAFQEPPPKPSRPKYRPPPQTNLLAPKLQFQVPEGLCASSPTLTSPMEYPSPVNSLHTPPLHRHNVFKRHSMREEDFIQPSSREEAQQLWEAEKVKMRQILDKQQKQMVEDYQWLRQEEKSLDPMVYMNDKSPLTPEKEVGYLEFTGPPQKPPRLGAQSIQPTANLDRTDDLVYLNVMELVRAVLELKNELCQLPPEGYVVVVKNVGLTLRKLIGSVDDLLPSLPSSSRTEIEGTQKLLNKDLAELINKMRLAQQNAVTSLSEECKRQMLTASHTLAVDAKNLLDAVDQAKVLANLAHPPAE
test: Kinase selectivity profiling, HTRF kinEASE-TK
Assay type: biochemical
pIC50: −log10 of the molar value.
recorded metric: pIC50

>>> print(df.to_string())
                                   molecule  recorded_metric  experimental_result
0  COc1ccc(Nc2nc(Nc3ccc(OCCOCCF)cc3)ncc2Br)cc1 [[^19F]2]            pIC50                 5.45

----------
target: EGFR (Homo sapiens)
Sequence (P00533 25-1210, species assumed): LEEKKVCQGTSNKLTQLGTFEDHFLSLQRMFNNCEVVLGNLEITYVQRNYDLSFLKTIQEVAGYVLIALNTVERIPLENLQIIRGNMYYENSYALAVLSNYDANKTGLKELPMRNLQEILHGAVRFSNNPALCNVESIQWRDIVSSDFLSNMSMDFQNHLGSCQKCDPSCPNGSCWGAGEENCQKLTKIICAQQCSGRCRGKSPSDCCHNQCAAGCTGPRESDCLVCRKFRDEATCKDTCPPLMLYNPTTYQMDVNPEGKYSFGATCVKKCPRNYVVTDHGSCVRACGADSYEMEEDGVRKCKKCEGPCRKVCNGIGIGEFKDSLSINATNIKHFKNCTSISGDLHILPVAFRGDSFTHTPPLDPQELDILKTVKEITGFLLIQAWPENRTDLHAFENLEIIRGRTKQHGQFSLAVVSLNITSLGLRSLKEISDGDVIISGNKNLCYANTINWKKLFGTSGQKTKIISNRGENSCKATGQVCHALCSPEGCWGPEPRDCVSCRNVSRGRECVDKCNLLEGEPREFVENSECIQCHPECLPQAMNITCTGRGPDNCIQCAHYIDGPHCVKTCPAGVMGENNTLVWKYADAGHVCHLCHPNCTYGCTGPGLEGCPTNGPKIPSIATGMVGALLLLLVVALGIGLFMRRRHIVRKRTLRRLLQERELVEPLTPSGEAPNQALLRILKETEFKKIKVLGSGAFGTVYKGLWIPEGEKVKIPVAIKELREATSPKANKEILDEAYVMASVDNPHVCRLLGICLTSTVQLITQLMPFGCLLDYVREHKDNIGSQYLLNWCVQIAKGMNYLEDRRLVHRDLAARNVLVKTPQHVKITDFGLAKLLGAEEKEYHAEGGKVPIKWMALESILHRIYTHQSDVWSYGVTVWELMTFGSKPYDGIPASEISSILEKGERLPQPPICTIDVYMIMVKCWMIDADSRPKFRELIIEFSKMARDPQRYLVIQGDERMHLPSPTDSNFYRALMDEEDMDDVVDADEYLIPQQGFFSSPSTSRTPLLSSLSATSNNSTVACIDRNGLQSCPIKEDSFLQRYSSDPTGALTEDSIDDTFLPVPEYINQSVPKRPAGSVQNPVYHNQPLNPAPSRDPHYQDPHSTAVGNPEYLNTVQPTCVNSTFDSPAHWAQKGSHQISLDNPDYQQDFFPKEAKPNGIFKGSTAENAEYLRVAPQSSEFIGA
recorded metric: IC50 (µM)

>>> print(df.to_string())
                                   compound               target  experimental_result
0  COc1ccc(Nc2nc(Nc3ccc(OCCOCCF)cc3)ncc2Br)cc1 [[^19F]2]  EGFR (Homo sapiens)                 4.31

----------
target: UniProt:Q14289
test: Kinase selectivity profiling, HTRF kinEASE-TK
Format: biochemical
details: read-out: IC50 ± SD PYK2; mean of three determinations
pIC50: −log10 of the molar value.
recorded metric: pIC50

In [3]: df
Out[3]:
                                   compound          target  experimental_result
0  CNC(=O)c1ccccc1Nc1nc(Nc2ccc(N3CCOCC3)cc2OC)ncc1Cl [NVP-TAE226, reference compound]  UniProt:Q14289                 8.24
